- Assayed Target: Drosophila OR98a (Drosophila melanogaster, UniProt Q9VAZ3)
- Construct: expressed in transfected cells
- Sequence (Q9VAZ3 whole entry, one chain of several): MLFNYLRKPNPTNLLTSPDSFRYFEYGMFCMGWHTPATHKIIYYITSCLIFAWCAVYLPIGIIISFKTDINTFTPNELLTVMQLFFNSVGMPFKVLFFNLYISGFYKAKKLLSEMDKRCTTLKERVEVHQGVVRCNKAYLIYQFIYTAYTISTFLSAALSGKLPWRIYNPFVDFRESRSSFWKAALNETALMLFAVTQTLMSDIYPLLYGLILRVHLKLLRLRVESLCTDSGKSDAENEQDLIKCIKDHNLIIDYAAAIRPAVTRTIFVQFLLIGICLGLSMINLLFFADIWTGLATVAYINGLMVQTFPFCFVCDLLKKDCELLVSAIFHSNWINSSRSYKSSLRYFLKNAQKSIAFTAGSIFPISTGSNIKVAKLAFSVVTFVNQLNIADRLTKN
- Assay Overview: Calcium ion fluorescence (GCaMP6) assay, OR98a stable HEK293 cell line;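 further: ligand concentrations in µM final VOC concentration in well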
- Format: cell-based
- Stated Conditions: HEK293, read-out: OR98a response (VUAA1-normalized response)
Listing of entries alongside the reported activation at 100 µM.
Assay Readout: activation at 100 µM (%)

>>> meas_value("CCCCCCCCCC=O")
0
>>> meas_value("C=C1CCC2CC1C2(C)C (stereo not shown)")
0
>>> meas_value("CCCCCCCCC(CO)CCCCCC (stereo not shown)")
0
>>> meas_value("CC(=O)OCC(C)C [isobutyl acetate]")
6.56
>>> meas_value("Cc1ccc(C)c(C)c1")
5
>>> meas_value("C=CC(O)C/C=C\\CC (stereo not shown)")
7
>>> meas_value("CCCCCC(C)O (stereo not shown)")
16
>>> meas_value("CC(=O)c1ccccc1")
0
>>> meas_value("O=Cc1ccccc1")
0
>>> meas_value("CCCCCCCO")
0
>>> meas_value("CCCCC(C)=O")
0
>>> meas_value("CC1=CCC2C(C1)C2(C)C (stereo not shown)")
0
>>> meas_value("CCCCCC(C)=O")
11
>>> meas_value("C=C1CC/C=C(\\C)CC[C@@H]2[C@@H]1CC2(C)C [(-)-trans-caryophyllene]")
6
>>> meas_value("CCOC(=O)CC [ethyl propionate]")
0
>>> meas_value("CCc1ccccc1")
0
>>> meas_value("CC1=CCC2CC1C2(C)C (stereo not shown)")
0
>>> meas_value("CCCC(=O)OCC [ethyl butyrate]")
6.6
>>> meas_value("CCCC(O)CC (stereo not shown)")
0
>>> meas_value("C=CC(O)CCCCC (stereo not shown)")
21
>>> meas_value("CCCCCC(O)CC (stereo not shown)")
13
>>> meas_value("Cc1ccc(O)cc1")
0
>>> meas_value("CCOC(=O)c1ccccc1 [ethyl benzoate]")
20
>>> meas_value("COc1cccc(OC)c1")
0
>>> meas_value("CCCCCC(=O)OCC [ethyl hexanoate]")
0
>>> meas_value("CC(=O)OCCC(C)C [isopentyl acetate]")
31
>>> meas_value("CCCCOC(C)=O [butyl acetate]")
0
>>> meas_value("CC1=CC[C@@H](C(C)(C)O)CC1")
6.45
>>> meas_value("CCCCCC(=O)CC")
16
>>> meas_value("C=C1CC[C@H]2O[C@]2(C)CC[C@@H]2[C@@H]1CC2(C)C [(-)-caryophyllene oxide]")
0
>>> meas_value("Cc1cccc(O)c1")
6
>>> meas_value("CCCCCO")
0
>>> meas_value("C=CCc1ccc(O)c(OC)c1")
0
>>> meas_value("CCCCC(C)O (stereo not shown)")
14

---

- Assayed Target: Drosophila OR47a (Drosophila melanogaster)
- Construct: expressed in transfected cells
- Sequence (P81921 1-385): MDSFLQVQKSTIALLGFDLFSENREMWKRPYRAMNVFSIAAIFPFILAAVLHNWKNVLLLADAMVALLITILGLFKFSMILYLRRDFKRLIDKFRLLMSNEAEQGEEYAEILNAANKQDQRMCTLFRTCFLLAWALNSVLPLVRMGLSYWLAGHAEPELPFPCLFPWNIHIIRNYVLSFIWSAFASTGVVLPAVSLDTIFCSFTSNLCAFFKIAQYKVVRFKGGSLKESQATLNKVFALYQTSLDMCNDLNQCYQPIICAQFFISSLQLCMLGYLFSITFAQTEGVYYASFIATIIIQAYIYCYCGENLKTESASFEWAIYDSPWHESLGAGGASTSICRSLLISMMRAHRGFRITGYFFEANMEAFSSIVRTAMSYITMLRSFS
- Sequence (Q9VNB5 1-486 partner): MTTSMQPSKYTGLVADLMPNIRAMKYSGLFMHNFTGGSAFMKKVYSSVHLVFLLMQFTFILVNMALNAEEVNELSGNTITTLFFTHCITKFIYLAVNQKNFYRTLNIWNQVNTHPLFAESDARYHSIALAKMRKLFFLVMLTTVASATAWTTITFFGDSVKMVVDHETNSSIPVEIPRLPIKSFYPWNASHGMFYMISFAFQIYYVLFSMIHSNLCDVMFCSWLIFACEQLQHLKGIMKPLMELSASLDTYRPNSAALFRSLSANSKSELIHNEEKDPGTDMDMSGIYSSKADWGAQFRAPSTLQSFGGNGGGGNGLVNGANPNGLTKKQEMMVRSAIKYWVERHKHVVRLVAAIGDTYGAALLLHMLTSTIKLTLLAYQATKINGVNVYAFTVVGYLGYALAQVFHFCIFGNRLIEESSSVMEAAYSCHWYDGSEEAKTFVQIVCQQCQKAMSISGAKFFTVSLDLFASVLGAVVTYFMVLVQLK
- Assay Overview: Calcium ion fluorescence (GCaMP6) assay, OR47a stable HEK293 cell line
- Format: cell-based
- Stated Conditions: concentration 100; normalized fluorescence change, values below 0.05 threshold given as 0
- Protocol: These VUAA1 normalized ∆F values were used to compare the different receptors and ligands. The concentration-dependent effect of the reference ligands on their cognate cell lines was examined in more detail. Twelve different ligand concentrations were measured on each cell line in an overall 0.01 μM to 100 μM concentration range with 5 repetitions with three technical replicates each time. […]
Assay Readout: DF norm AVERAGE OR47a

>>> meas_value("C=C1[C@H]2CC[C@@H]3[C@H]2C(C)(C)CCC[C@]13C [(+)-longifolene]")
0
>>> meas_value("C=CC(O)C/C=C\\CC (stereo not drawn) [(5Z)-octa-1,5-dien-3-ol]")
0
>>> meas_value("CCCCCC(C)O (stereo not drawn) [2-heptanol]")
0
>>> meas_value("Cc1ccc(O)cc1 [4-methylphenol]")
0.05422
>>> meas_value("CCCCCO [1-pentanol]")
0
>>> meas_value("COc1cccc(OC)c1 [1,3-dimethoxy benzene]")
0
>>> meas_value("CCCC(O)CC (stereo not drawn) [3-hexanol]")
0.1087
>>> meas_value("CCCCCCCO [1-heptanol]")
0
>>> meas_value("Cc1ccc(C)c(C)c1 [1,2,4-trimethylbenzene]")
0
>>> meas_value("CCCCCC(=O)CC [3-octanone]")
0.7333
>>> meas_value("CCCCC(C)O (stereo not drawn) [2-hexanol]")
0.05091
>>> meas_value("C=C1CC/C=C(\\C)CC[C@@H]2[C@@H]1CC2(C)C [(-)-trans-caryophyllene]")
0

---

- Assayed Target: Drosophila OR49b (Drosophila melanogaster, UniProt Q9V6H2)
- Construct: expressed in transfected cells
- Sequence (Q9V6H2 whole entry, one chain of several): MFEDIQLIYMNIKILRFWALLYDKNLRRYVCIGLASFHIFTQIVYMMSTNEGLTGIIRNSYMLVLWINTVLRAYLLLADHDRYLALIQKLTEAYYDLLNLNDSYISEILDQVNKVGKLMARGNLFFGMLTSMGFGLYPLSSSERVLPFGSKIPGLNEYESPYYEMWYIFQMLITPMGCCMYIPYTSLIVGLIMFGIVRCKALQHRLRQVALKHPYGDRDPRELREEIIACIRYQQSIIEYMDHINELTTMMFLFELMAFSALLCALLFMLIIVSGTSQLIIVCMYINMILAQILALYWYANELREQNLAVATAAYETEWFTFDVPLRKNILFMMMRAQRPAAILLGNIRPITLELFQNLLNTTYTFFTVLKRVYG
- Assay Overview: cell-based
- Stated Conditions: OR49b cell line; odorant cc. 10 µM; mean of biological replicates
Assay Readout: Average response

>>> meas_value("CCOC(=O)c1ccccc1 [ethyl benzoate]")
0.0464
>>> meas_value("CCCCC(C)O (stereo not shown) [2-hexanol]")
0.00
>>> meas_value("COC(=O)c1ccccc1 [methyl benzoate]")
0.00
>>> meas_value("C=CC(O)C/C=C\\CC (stereo not shown) [(5Z)-octa-1,5-dien-3-ol]")
0.04
>>> meas_value("C=C1CC/C=C(\\C)CC[C@@H]2[C@@H]1CC2(C)C [(-)-trans-caryophyllene]")
0.00
>>> meas_value("CC1=CCC2C(C1)C2(C)C (stereo not shown) [3-carene]")
0.00
>>> meas_value("CCCCCC(O)CC (stereo not shown) [3-octanol]")
0.07
>>> meas_value("CC1=CCC23CC1C(C)(C)C2CCC3C (stereo not drawn) [α-funebrene]")
0.00
>>> meas_value("CCCCCC(=O)OCC [ethyl hexanoate]")
0.00
>>> meas_value("CCCCCO [1-pentanol]")
0.00
>>> meas_value("CCCCOC(=O)CC [butyl propanoate]")
0.00
>>> meas_value("CCCC(=O)OCC [ethyl butyrate]")
0.00
>>> meas_value("CC/C=C\\CCOC(C)=O [z3-hexenyl acetate]")
0.0171

---

Parameter OR13a Average response (VUAA1-normalized): see the listing below.
- Assayed Target: Drosophila OR13a (Drosophila melanogaster)
- Construct: expressed in transfected cells
- Sequence (Q9VXL0 whole entry, one chain of several): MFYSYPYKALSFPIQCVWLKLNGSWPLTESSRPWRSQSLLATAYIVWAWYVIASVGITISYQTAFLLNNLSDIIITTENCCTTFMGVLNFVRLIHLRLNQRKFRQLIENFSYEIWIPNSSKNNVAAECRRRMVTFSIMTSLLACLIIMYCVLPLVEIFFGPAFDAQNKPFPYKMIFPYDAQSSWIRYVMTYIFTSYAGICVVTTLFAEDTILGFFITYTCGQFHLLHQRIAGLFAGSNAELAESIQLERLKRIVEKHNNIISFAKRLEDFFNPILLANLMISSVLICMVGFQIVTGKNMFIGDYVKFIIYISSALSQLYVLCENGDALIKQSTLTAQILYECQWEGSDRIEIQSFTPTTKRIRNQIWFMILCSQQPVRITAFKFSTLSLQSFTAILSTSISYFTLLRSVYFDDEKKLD
- Assay Overview: Calcium ion fluorescence (GCaMP6) assay, OR13a stable HEK293 cell line
- Type: cell-based
- Stated Conditions: 100 μM VOC; 50 μM VUAA1 = 1; responses not exceeding 0.05 considered 0
Assay Readout: OR13a Average response (VUAA1-normalized)

>>> meas_value("CC/C=C\\CCO [Z3-hexenol]")
0.00
>>> meas_value("C=C(C)C1CCC2(C)OC2C1 (single isomer, unassigned; (+)) [(+)-limonene oxide]")
0.00
>>> meas_value("C=C1[C@H]2CC[C@@H]3[C@H]2C(C)(C)CCC[C@]13C [(+)-longifolene]")
0.00
>>> meas_value("CC1=CCC[C@@]2(C)[C@@H]3CC[C@]12CC3(C)C [(−)-α-neoclovene]")
0.00
>>> meas_value("C=C(C)[C@H]1CC=C(C)CC1 [limonene]")
0.00
>>> meas_value("C=C(C)[C@H]1CC=C(C)CC1 [(R)-(+)-limonene]")
0.0285
>>> meas_value("CC/C=C/CCO [e3-hexenol]")
0.07
>>> meas_value("CC(C)=CCC/C(C)=C/CC/C(C)=C/CO [e,e-farnesol]")
0.026
